Provenance of the data: patent US9376418B2

molecular target: recombinant human GST-SYK (Homo sapiens); construct: purchased Carna Biosciences 08-176; assay: Homogeneous Time-Resolved Fluorescence (HTRF) assay for the recombinant human Syk enzyme; type: biochemical; conditions: HTRF assay, recombinant human GST-SYK; IC50 given as class symbols; read-out: rhSYK Activity
quantity: IC50

For orientation, consider the following solved cases.
Cc1cc(Nc2nccc(C(F)(F)F)n2)cc(-c2ccc(NC3(C(=O)O)CCNCC3)nc2)c1
< 100 nM
Cc1cc(Nc2nccc(C(F)(F)F)n2)cc(-c2ccc(-c3cn(CC(=O)O)nn3)nc2)c1
< 100 nM
CCCCOC(=O)C1CCC(C(C)(O)c2ccc(-c3cc(C)cc(Nc4nccc(OC)n4)c3)cn2)CC1 (single isomer, unassigned)
100 to 1000 nM

Parameters: items (list). Returns: IC50 for each item.
1. Cc1cc(Nc2nccc(C(F)(F)F)n2)cc(-c2ccc(C(=O)NC(C)(C)CO)nc2)c1
2. CC(=O)Nc1cc(Nc2nccc(C(F)(F)F)n2)cc(-c2ccc(NC3CCNC3=O)nc2)c1 (stereo not drawn)
3. Cc1cc(Nc2nccc(C(F)(F)F)n2)cc(-c2ccc(C3(O)CCC(C(=O)O)C(C)(C)C3)nc2)c1 (single isomer, unassigned) [Example 9.8]
4. Cc1cc(Nc2nccc(C(F)(F)F)n2)cc(-c2ccnc(C3(O)CCC4(CC3)OCCO4)c2)c1
5. CC[C@@H](C)[C@@H](Nc1ccc(-c2cc(C)cc(Nc3nccc(C(F)(F)F)n3)c2)cn1)C(=O)O
6. Cc1cc(Nc2nccc(C(F)(F)F)n2)cc(-c2ccnc(O)c2)c1
7. Cc1cc(Nc2nccc(C(F)(F)F)n2)cc(-c2ccc(C(=O)N(C)CC(N)=O)nc2)c1

Ans:
1. 100 to 1000 nM
2. < 100 nM
3. < 100 nM
4. < 100 nM
5. < 100 nM
6. < 100 nM
7. < 100 nM

Parameters: items (list). Returns: IC50 for each item.
1. Cc1cc(Nc2nccc(C(F)(F)F)n2)cc(-c2ccc(CC(F)(F)C(=O)O)nc2)c1
2. Cc1cc(Nc2nccc(C(F)(F)F)n2)cc(-c2ccc(N[C@H](C)C(=O)O)nc2)c1 [Example 7.89]

Ans:
1. < 100 nM
2. < 100 nM

Parameters: items (list). Returns: IC50 for each item.
1. Cc1cc(Nc2nccc(C(F)(F)F)n2)cc(-c2ccc(C#N)nc2)c1
2. CNC(=O)C1CCN(c2ccc(-c3cc(C)cc(Nc4nccc(C(F)(F)F)n4)c3)cn2)CC1
3. Cc1cc(Nc2nccc(C(F)(F)F)n2)cc(-c2ccc(N3CCC[C@@]3(C)C(=O)O)nc2)c1
4. CC(=O)NCCCNc1cc(-c2cc(C)cc(Nc3nccc(C(F)(F)F)n3)c2)ccn1
5. Cc1cc(Nc2nccc(C(F)(F)F)n2)cc(-c2ccnc(NCCc3cnccn3)c2)c1
6. Cc1cc(Nc2nccc(C(F)(F)F)n2)cc(-c2ccc(N3CCCCC3CC(=O)O)nc2)c1 (stereo not drawn)
7. Cc1cc(Nc2nccc(C(F)(F)F)n2)cc(-c2ccc(N3C[C@H](O)C[C@H]3C(=O)O)nc2)c1
8. Cc1cc(Nc2nccc(C(F)(F)F)n2)cc(-c2ccc(N3CCC(C(=O)N4CCC(C(=O)O)CC4)CC3)nc2)c1

Ans:
< 100 nM
100 to 1000 nM
< 100 nM
100 to 1000 nM
100 to 1000 nM
< 100 nM
< 100 nM
< 100 nM

Parameters: items (list). Returns: IC50 for each item.
1. Cc1cc(Nc2nccc(C(F)(F)F)n2)cc(-c2ccc(C(=O)N3CCC(C)(O)C3)nc2)c1 (stereo not drawn)
2. COc1ccc(-c2cccc(Nc3nccc(C(F)(F)F)n3)c2)cn1
3. COCCNc1cncc(-c2cc(C)cc(Nc3nccc(C(F)(F)F)n3)c2)c1
4. Cc1cc(Nc2nccc(C(F)(F)F)n2)cc(-c2cncc(CO)c2)c1
5. CCC(C)(C#N)Nc1ccc(-c2cc(C)cc(Nc3nccc(C(F)(F)F)n3)c2)cn1 (stereo not drawn) [Example 18.1]

Ans:
1: < 100 nM; 2: 100 to 1000 nM; 3: < 100 nM; 4: < 100 nM; 5: < 100 nM

Parameters: items (list). Returns: IC50 for each item.
1. Cc1cc(Nc2nccc(OC3CCNCC3)n2)cc(-c2cccnc2)c1
2. CCOC(=O)C1CCC(O)(c2ccc(-c3cc(C)cc(Nc4nccc(C(F)(F)F)n4)c3)cn2)C1(C)C (stereo not drawn)
3. Cc1cc(Nc2nccc(C(F)(F)F)n2)cc(-c2ccc(N[C@@H](Cc3c[nH]c4ccccc34)C(=O)O)nc2)c1
4. Cc1cc(Nc2nccc(C(F)(F)F)n2)cc(-c2ccc(C3(O)CCN(C(N)=O)C3)nc2)c1 (stereo not drawn)
5. Cc1cc(Nc2nccc(C(F)(F)F)n2)cc(-c2ccnc(N3CCN(C=O)CC3)c2)c1

Ans:
1. < 100 nM
2. 1000 to 10000 nM
3. < 100 nM
4. < 100 nM
5. < 100 nM

* * *

target: recombinant human GST-SYK (Homo sapiens, UniProt P43405); construct: purchased Carna Biosciences 08-176; test: Homogeneous Time-Resolved Fluorescence (HTRF) assay for the recombinant human Syk enzyme; type: biochemical; conditions: HTRF assay, recombinant human GST-SYK; IC50 given as class symbols; read-out: rhSYK Activity
pIC50: −log10 of the molar value.
Provide the reported pIC50 of each item.

CCOC(=O)CCc1ccc(-c2cccc(Nc3nccc(C(F)(F)F)n3)c2)cn1
6.00 to 7.00
Cc1cc(Nc2nccc(C(C)(F)F)n2)cc(-c2cccnc2)c1
> 7.00
Cc1cc(Nc2nccc(C(F)(F)F)n2)cc(-c2ccc(C(C)(O)[C@H]3CC[C@H](C(=O)O)CC3)nc2)c1 (single isomer, unassigned)
> 7.00

Parameters: items (list). Returns: pIC50 for each item.
1. Cc1cc(Nc2nccc(C(F)(F)F)n2)cc(-c2ccc(N3CCCC3C(=O)O)nc2)c1 (single isomer, unassigned) [Example 7.122]
2. Cc1cc(Nc2nccc(C(F)(F)F)n2)cc(-c2ccc(N3CCC(N4CC(C(=O)O)CC4=O)CC3)nc2)c1 (stereo not drawn)
3. Cc1cc(Nc2nccc(C(F)(F)F)n2)cc(-c2ccc([C@]3(O)CC[C@@H](O)CC3)nc2)c1
4. Cc1cc(Nc2nccc(C(F)(F)F)n2)cc(-c2ccc(C(=O)NCc3ncnn3C)nc2)c1
5. Cc1cc(Nc2nccc(C(F)(F)F)n2)cc(-c2ccc(C3(O)CCN(C(N)=O)CC3)nc2)c1

Ans:
> 7.00
> 7.00
> 7.00
6.00 to 7.00
> 7.00

* * *

Provide the reported pIC50 of each item.
Molecular target: recombinant human GST-SYK (Homo sapiens, UniProt P43405)
Construct: purchased Carna Biosciences 08-176
Experiment: Homogeneous Time-Resolved Fluorescence (HTRF) assay for the recombinant human Syk enzyme
Type: biochemical
Conditions: HTRF assay, recombinant human GST-SYK; IC50 given as class symbols; read-out: rhSYK Activity
Description: Homogeneous Time-Resolved Fluorescence (HTRF) Assay for the Recombinant Human Syk Enzyme A recombinant GST-hSYK fusion protein was used to measure potency of compounds to inhibit human Syk activity. […] The resulting HTRF signal was measured after 30 minutes on an EnVision (Perkin-Elmer) reader using a time-resolved fluorescence protocol.
pIC50: −log10 of the molar value.

Cc1cc(Nc2nccc(C(F)(F)F)n2)cc(-c2ccc(N3CCCNC(=O)C3)nc2)c1
> 7.00
C=C(F)CNC(=O)c1ccc(-c2cc(C)cc(Nc3nccc(C(F)(F)F)n3)c2)cn1
6.00 to 7.00

Parameters: items (list). Returns: pIC50 for each item.
1. Cc1cc(Nc2nccc(C(F)(F)F)n2)cc(-c2ccc(C(C)(O)CO)nc2)c1 (stereo not shown) [Example 9.57]
2. Cc1cc(Nc2nccc(C(F)(F)F)n2)cc(-c2ccc(C3(O)CCC(C(=O)O)C(C)(C)C3)nc2)c1 (stereo not shown) [Example 9.46]
3. Cc1cc(Nc2nccc(C(F)(F)F)n2)cc(-c2ccc(C(=O)O)nc2)c1
4. Cc1cc(Nc2nccc(C(F)(F)F)n2)cc(-c2cncc(C(C)(O)C(C)O)c2)c1 (stereo not shown)

Ans:
["> 7.00", "> 7.00", "> 7.00", "> 7.00"]

* * *

target: recombinant human GST-SYK (Homo sapiens, UniProt P43405); construct: purchased Carna Biosciences 08-176; assay: Homogeneous Time-Resolved Fluorescence (HTRF) assay for the recombinant human Syk enzyme; type: biochemical; conditions: HTRF assay, recombinant human GST-SYK; IC50 given as class symbols; read-out: rhSYK Activity
quantity: IC50

For orientation, consider the following solved cases.
Cc1cc(Nc2nccc(C(F)(F)F)n2)cc(-c2ccnc(N3CCN(C)C(=O)C3)c2)c1
< 0.1 µM
Cc1cc(Nc2nccc(C(F)(F)F)n2)cc(-c2ccc(N3CCCC3C(N)=O)nc2)c1 (racemic)
< 0.1 µM

Parameters: items (list). Returns: IC50 for each item.
1. CCCCOC(=O)[C@H]1CC[C@H](C(C)(O)c2ccc(-c3cc(C)cc(Nc4nccc(OC)n4)c3)cn2)CC1 (relative stereo)
2. Cc1cc(Nc2nccc(C(F)(F)F)n2)cc(-c2ccc(NC3(C(=O)O)CC3)nc2)c1 [Example 7.81]
3. CS(=O)(=O)c1ccc(-c2cccc(Nc3nccc(C(F)(F)F)n3)c2)nc1
4. Cc1cc(Nc2nccc(C(F)(F)F)n2)cc(-c2ccc(C(=O)NCc3cn(C)cn3)nc2)c1
5. Cc1cc(Nc2nccc(C(F)(F)F)n2)cc(-c2ccc(S(=O)(=O)NC3CC3)nc2)c1

Ans:
["< 0.1 µM", "0.1 to 1 µM", "0.1 to 1 µM", "0.1 to 1 µM", "0.1 to 1 µM"]
